Reported pIC50 values are given for each entry in this list.
# Tested on: MCF7
# test-name: Antiproliferative activity against human MCF7 cells after 48 hrs by MTT assay
# Format: functional, cell-based
# experimental-parameters: MCF7, 48 h
pIC50: −log10 of the molar value.

| structure-smiles-string | pIC50 |
| --- | --- |
| Cc1ccc2[nH]c3c(c2c1)CC[C@]1(C3=O)[C@@H](c2ccccc2)[C@@H](c2ccccc2)N[C@@]12C(=O)Nc1ccccc12 | 4.72 |
| O=C1Nc2ccccc2[C@]12N[C@H](c1ccccc1)[C@H](c1ccccc1)[C@@]21CCc2c([nH]c3ccccc23)C1=O | 4.82 |
| O=C1Nc2ccccc2[C@]12N[C@H](c1ccccc1)[C@H](c1ccccc1)[C@@]21CCc2c([nH]c3ccc(Cl)cc23)C1=O | 4.74 |
| O=C1Nc2ccccc2[C@]12N[C@H](c1ccccc1)[C@H](c1cccs1)[C@@]21CCc2c([nH]c3ccc(Cl)cc23)C1=O | 4.89 |
| COc1ccc([C@H]2[C@@H](c3ccccc3)N[C@@]3(C(=O)Nc4ccccc43)[C@]23CCc2c([nH]c4ccc(Cl)cc24)C3=O)cc1 | 4.72 |
| COc1ccc([C@H]2[C@@H](c3ccccc3)N[C@@]3(C(=O)Nc4ccccc43)[C@]23CCc2c([nH]c4ccccc24)C3=O)cc1 | 4.77 |
| O=C1Nc2ccccc2[C@]12N[C@H](c1ccccc1)[C@H](c1cccs1)[C@@]21CCc2c([nH]c3ccccc23)C1=O | 4.82 |
| Cc1ccc2[nH]c3c(c2c1)CC[C@]1(C3=O)[C@@H](c2cccs2)[C@@H](c2ccccc2)N[C@@]12C(=O)Nc1ccccc12 | 4.85 |
| COc1ccc([C@H]2[C@@H](c3ccccc3)N[C@@]3(C(=O)Nc4ccccc43)[C@]23CCc2c([nH]c4ccc(C)cc24)C3=O)cc1 | 4.74 |

====

# System: MCF7
# test-name: Induction of apoptosis in human MCF7 cells assessed as nuclear condensation by acridine orange/ethidium bromide staining-based fluorescence microscopic analysis
# Format: functional, cell-based
Active and inactive are the calls of the source. No cut-off for these calls is given here.
observed-property: Activity

| structure-smiles-string | experimental-system | observed-result |
| --- | --- | --- |
| O=C1Nc2ccccc2[C@]12N[C@H](c1ccccc1)[C@H](c1ccccc1)[C@@]21CCc2c([nH]c3ccccc23)C1=O | MCF7 | inactive |
| Cc1ccc2[nH]c3c(c2c1)CC[C@]1(C3=O)[C@@H](c2cccs2)[C@@H](c2ccccc2)N[C@@]12C(=O)Nc1ccccc12 | MCF7 | Active |
| Cc1ccc2[nH]c3c(c2c1)CC[C@]1(C3=O)[C@@H](c2ccccc2)[C@@H](c2ccccc2)N[C@@]12C(=O)Nc1ccccc12 | MCF7 | inactive |
| O=C1Nc2ccccc2[C@]12N[C@H](c1ccccc1)[C@H](c1cccs1)[C@@]21CCc2c([nH]c3ccc(Cl)cc23)C1=O | MCF7 | Active |
| COc1ccc([C@H]2[C@@H](c3ccccc3)N[C@@]3(C(=O)Nc4ccccc43)[C@]23CCc2c([nH]c4ccc(C)cc24)C3=O)cc1 | MCF7 | inactive |
| COc1ccc([C@H]2[C@@H](c3ccccc3)N[C@@]3(C(=O)Nc4ccccc43)[C@]23CCc2c([nH]c4ccc(Cl)cc24)C3=O)cc1 | MCF7 | inactive |
| O=C1Nc2ccccc2[C@]12N[C@H](c1ccccc1)[C@H](c1cccs1)[C@@]21CCc2c([nH]c3ccccc23)C1=O | MCF7 | inactive |
| O=C1Nc2ccccc2[C@]12N[C@H](c1ccccc1)[C@H](c1ccccc1)[C@@]21CCc2c([nH]c3ccc(Cl)cc23)C1=O | MCF7 | inactive |
